Catalogue of molecules with associated IC50
Molecular target: hNAMPT protein (Homo sapiens (Human), UniProt P43490)
Sequence (P43490 whole entry): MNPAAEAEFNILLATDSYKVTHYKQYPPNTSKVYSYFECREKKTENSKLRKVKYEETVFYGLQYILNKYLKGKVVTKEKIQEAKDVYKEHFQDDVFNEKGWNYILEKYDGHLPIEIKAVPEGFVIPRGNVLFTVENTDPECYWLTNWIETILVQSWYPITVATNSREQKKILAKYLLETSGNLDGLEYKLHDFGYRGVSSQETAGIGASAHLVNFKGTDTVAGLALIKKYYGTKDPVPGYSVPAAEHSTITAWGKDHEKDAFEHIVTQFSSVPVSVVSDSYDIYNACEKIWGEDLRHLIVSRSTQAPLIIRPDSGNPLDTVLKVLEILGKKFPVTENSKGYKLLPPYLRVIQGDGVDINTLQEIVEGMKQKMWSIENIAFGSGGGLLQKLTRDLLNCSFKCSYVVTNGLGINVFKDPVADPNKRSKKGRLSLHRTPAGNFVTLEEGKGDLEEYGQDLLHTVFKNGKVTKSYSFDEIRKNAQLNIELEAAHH
Experiment: NAMPT enzyme assay (TR-FRET/HTRF, BodiPY ligand, anti 6His-Tb)
Assay type: binding
Conditions: NAMPT IC50 range class; read-out: IC50
assayMetric: IC50

>>> result("O=C(NCCc1cnc2ccccn12)c1ccc2nc(-c3ccc(F)cc3)c(-c3ccc(F)cc3)nc2c1")
"500 to 1000 nM"
>>> result("O=C(NCCCn1ccnc1)c1ccc2nc(-c3ccc(F)cc3)c(-c3ccc(F)cc3)nc2c1")
"100 to 500 nM"
>>> result("O=C(NCCCc1ccnnc1)c1ccc2nc(N3CCOCC3)c(-c3ccc(F)cc3)nc2c1")
"< 100 nM"
>>> result("O=C(NCCOc1cccnc1)c1ccc2nc(N3CCC(N4CCOCC4)CC3)c(-c3ccc(F)cc3)nc2c1")
"< 100 nM"
>>> result("O=C(NCCCc1ncc[nH]1)c1ccc2nc(OCCc3cnoc3)c(-c3ccc(F)cc3)nc2c1")
"< 100 nM"
>>> result("O=C(NCCCc1c[nH]cn1)c1ccc2nc(N3CCOCC3)c(-c3ccc(F)cc3)nc2c1")
"< 100 nM"
>>> result("O=C(NCc1ccc2nccn2c1)c1ccc2nc(N3CCCCC3)c(-c3ccc(F)cc3)nc2c1")
"< 100 nM"
>>> result("O=C(NCCCc1ncc[nH]1)c1ccc2nc(N3CCS(=O)(=O)CC3)c(-c3ccc(F)cc3)nc2c1")
"< 100 nM"
>>> result("COc1cccc(-c2nc3cc(C(=O)NCCCn4ccnc4)ccc3nc2-c2ccccc2)c1")
"< 100 nM"
>>> result("CC(=O)Nc1ccc(-c2nc3cc(C(=O)NCCCn4ccnc4)ccc3nc2-c2ccccc2)cc1")
"2000 to 10000 nM"
>>> result("O=C(NCCn1ccnc1)c1ccc2nc(N3CCC(C4CCNCC4)CC3)c(-c3ccccc3)nc2c1")
"100 to 500 nM"
>>> result("O=C(NCCc1cccnc1)c1ccc2nc(-c3ccccc3)c(-c3ccccc3)nc2c1")
"500 to 1000 nM"
>>> result("O=C(NCCCc1nccs1)c1ccc2nc(N3CCC(N4CCOCC4)CC3)c(-c3ccc(F)cc3)nc2c1")
"< 100 nM"
>>> result("CCOc1ccc(F)c(-c2nc3cc(C(=O)NCCCc4ncc[nH]4)ccc3nc2-c2ccc(F)cc2)c1")
"100 to 500 nM"
>>> result("O=C(c1ccc2nc(-c3ccc(F)cc3)c(-c3ccc(F)cc3)nc2c1)N1CCC(c2ncccn2)C1 (stereo not drawn)")
"2000 to 10000 nM"
